test system: CAL-120; assay: drug sensitivity score (DSS), CellTiter-Glo (DSS (AUC-based score)); higher = stronger drug effect (viability inhibition or cytotoxicity); extreme values may be limits of the assay; details: incubation time: 72 h
Overview of reported drug sensitivity score across a group of molecules:
Form field (numeric): enter value without unit.

Example cases with answers are listed next.
Per the reported CAL-120 data, COc1cc2c(NC3CCN(C(C)C)CC3)nc(N3CCC(F)(F)CC3)nc2cc1OCCCN1CCCC1 [UNC0642] has drug sensitivity score of 0

Per the reported CAL-120 data, CN(C)c1nc(N(C)C)nc(N(C)C)n1 [Altretamine] has drug sensitivity score of 0

Per the reported CAL-120 data, Oc1ccc2c(c1)CC[C@H](c1ccccc1)[C@@H]2c1ccc(OCCN2CCCC2)cc1 [Lasofoxifene] has drug sensitivity score of 0

Others:
Per the reported CAL-120 data, Cc1cc(Nc2cc(CN3CCOCC3)c3nc(C)c(Cc4ccc(Cl)cc4F)n3n2)n[nH]1 [Gandotinib] has drug sensitivity score of 3.77

Per the reported CAL-120 data, CNC(=O)c1ccc(N2C(=S)N(c3ccc(C#N)c(C(F)(F)F)c3)C(=O)C2(C)C)cc1F [Enzalutamide] has drug sensitivity score of 0

Per the reported CAL-120 data, c1ccc2c(CCNc3ccc(Nc4ccncc4)cc3)c[nH]c2c1 [Serdemetan] has drug sensitivity score of 0

* * *

system: HDQ-P1; assay: normalised viability (% of control), CellTiter-Blue; higher = more viable cells (about 100 = DMSO control); details: 3 nM; incubation time: 72 h
recordedMetric: normalised viability (%)
Report only the number, with the unit % understood.

Example cases with answers are listed next.
Entry NC(=O)c1ccc(I)c([N+](=O)[O-])c1 — recorded normalised viability = 99.3

Entry Oc1ccc2c(c1)CC[C@H](c1ccccc1)[C@@H]2c1ccc(OCCN2CCCC2)cc1 — recorded normalised viability = 114

Entry O=C(Nc1cccnc1)N1CCC(Cc2cccc(Oc3ccc(C(F)(F)F)cn3)c2)CC1 — recorded normalised viability = 129

Entry Nc1cc(C(F)(F)F)c(-c2cc(N3CCOCC3)nc(N3CCOCC3)n2)cn1 — recorded normalised viability = 97.8

Entry CNC(=O)c1cc(Oc2ccc(NC(=O)Nc3ccc(Cl)c(C(F)(F)F)c3)c(F)c2)ccn1 — recorded normalised viability = 101

Continue with the next molecule.
Entry O=C(/C=C/c1cccc(S(=O)(=O)Nc2ccccc2)c1)NO — recorded normalised viability = 90.4

* * *

Overview of reported normalised response across a group of molecules:
tested on: CAL-85-1; assay: normalised response (% of control), CellTox Green; higher = less cell death (100 = DMSO, 0 = benzethonium chloride kill control); settings: incubation time: 72 h
Report only the number, with the unit % understood.

Example cases with answers are listed next.
Entry CN(C)c1nc(N(C)C)nc(N(C)C)n1 [Altretamine] (1000 nM) — recorded normalised response = 102

Entry Cc1ccc(NC(=O)c2ccc(CN3CCN(C)CC3)cc2)cc1Nc1nc(-c2cccnc2)cs1 [Masitinib] (1000 nM) — recorded normalised response = 98.9

Entry NC(=O)c1ccc(I)c([N+](=O)[O-])c1 [Iniparib] (1000 nM) — recorded normalised response = 101

Others:
Entry CCOC(=O)CCNc1cc(N2CCc3ccccc3CC2)nc(-c2ccccn2)n1 [GSK-J4] (100000 nM) — recorded normalised response = -35.9

Entry CCn1c(-c2nonc2N)nc2cnc(Oc3cccc(NC(=O)c4ccc(OCCN5CCOCC5)cc4)c3)cc21 (1000 nM) — recorded normalised response = 109

Entry Nc1cc(C(F)(F)F)c(-c2cc(N3CCOCC3)nc(N3CCOCC3)n2)cn1 [Buparlisib] (100 nM) — recorded normalised response = 109
